Each item that follows carries a reported EC50.
systemName: human liver GK (Homo sapiens, UniProt P35557)
Construct: GST (Glutathione S-transferase) (N); made in house; host or cells: Escherichia coli
Sequence (P35557 1-466 isoform P35557-2): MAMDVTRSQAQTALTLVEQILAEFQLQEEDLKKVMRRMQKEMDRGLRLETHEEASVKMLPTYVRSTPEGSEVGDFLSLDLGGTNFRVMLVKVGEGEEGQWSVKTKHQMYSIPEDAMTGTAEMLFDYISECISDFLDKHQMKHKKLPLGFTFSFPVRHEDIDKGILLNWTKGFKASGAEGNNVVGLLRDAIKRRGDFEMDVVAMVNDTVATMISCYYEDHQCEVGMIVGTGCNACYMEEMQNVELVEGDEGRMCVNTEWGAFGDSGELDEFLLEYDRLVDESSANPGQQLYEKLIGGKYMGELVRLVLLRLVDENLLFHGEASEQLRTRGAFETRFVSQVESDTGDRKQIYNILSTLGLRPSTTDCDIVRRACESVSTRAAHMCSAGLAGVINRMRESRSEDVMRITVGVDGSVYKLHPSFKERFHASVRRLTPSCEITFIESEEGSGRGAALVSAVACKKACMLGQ
testName: GK Activation Test
Assay type: biochemical
testParameters: concentration activating GK to 50% of the maximum activation value; 4 mM 14C-labeled glucose
assayMetric: EC50 (nM)

| givenSmiles | observedResult |
| --- | --- |
| Cn1ccc(NC(=O)c2nc(Sc3nnc[nH]3)cnc2Sc2ccc(F)cc2)n1 | 104 |
| Cc1nnc(Sc2cnc(Sc3ccc(F)cc3)c(C(=O)Nc3ccn(C)n3)n2)[nH]1 | 117 |
| COc1ccc(Sc2ncc(Sc3nnc[nH]3)nc2C(=O)Nc2cnccn2)cc1 | 59.4 |
| COCCn1ccc(NC(=O)c2nc(Sc3nnc(C)[nH]3)cnc2Sc2ccc(F)cc2)n1 | 397 |
| Cn1ccc(NC(=O)c2nc(Sc3nnc[nH]3)cnc2SC2CCCCC2)n1 | 171 |
| Cn1ccc(NC(=O)c2nc(Sc3nnc[nH]3)cnc2Sc2ccncc2)n1 | 110 |
| Cn1ccc(NC(=O)c2nc(Sc3nncs3)cnc2Sc2ccc(F)cc2)n1 | 311 |
| O=C(Nc1cnccn1)c1nc(Sc2nnc[nH]2)cnc1Sc1ccc(F)cc1 | 89.5 |
